These entries and their values trace back to paper PMC4072508.

Biological target: T1, Mcl-1, Q07820
T1 chain: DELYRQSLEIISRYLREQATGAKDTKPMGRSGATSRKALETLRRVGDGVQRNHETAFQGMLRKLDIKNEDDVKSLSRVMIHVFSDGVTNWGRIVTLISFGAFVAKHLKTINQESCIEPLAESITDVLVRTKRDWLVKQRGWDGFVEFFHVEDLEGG
Assay: peptide SPOT array, c-Myc-tagged receptor at 1 uM or 100 nM, anti-c-Myc-Cy3
quantityKind: SPOT signal as a fraction of Bim BH3's signal on the same receptor and array

# query: SPOT signal as a fraction of Bim BH3's signal on the same receptor and array of entry PFKKMDFSRNLYDIGEQLDSEDLASL [CASP8]
0.05

# query: SPOT signal as a fraction of Bim BH3's signal on the same receptor and array of entry SGLPGLSSVDINNFGDSINESEGIPL [MKI67]
0.04

# query: SPOT signal as a fraction of Bim BH3's signal on the same receptor and array of entry LLPRETVAGALRRLGARGGGKGRKGP [CD2BP2]
0.13

# query: SPOT signal as a fraction of Bim BH3's signal on the same receptor and array of entry DGLDLPSETDLRILGCELIQAAGILL [CCNL1]
0.03

# query: SPOT signal as a fraction of Bim BH3's signal on the same receptor and array of entry VKGAEITGKAIQKGASKLRERIQPEE [SPG20]
0.02

# query: SPOT signal as a fraction of Bim BH3's signal on the same receptor and array of entry VILADPDGHEICFVGDEAFRELSKMD [GLOD4]
0.01

# query: SPOT signal as a fraction of Bim BH3's signal on the same receptor and array of entry AVLSPQSADNLKQVARSLFLLGKHKA [BBS4]
0.2
